Data provenance is patent US20150175655A1.

Molecular target: NS3 genotype 3a protease (UniProt Q81258)
Construct: Purified NS3 protease domain (amino acids 1-181) of the genotype 1b and 3a virus were generated as above; fused on or other part: N-terminal hexahistidine tag and rTEV protease cleavage site (vector p28-N6H-Tev-NS3(181)3)
Sequence (Q81258 1033-1663): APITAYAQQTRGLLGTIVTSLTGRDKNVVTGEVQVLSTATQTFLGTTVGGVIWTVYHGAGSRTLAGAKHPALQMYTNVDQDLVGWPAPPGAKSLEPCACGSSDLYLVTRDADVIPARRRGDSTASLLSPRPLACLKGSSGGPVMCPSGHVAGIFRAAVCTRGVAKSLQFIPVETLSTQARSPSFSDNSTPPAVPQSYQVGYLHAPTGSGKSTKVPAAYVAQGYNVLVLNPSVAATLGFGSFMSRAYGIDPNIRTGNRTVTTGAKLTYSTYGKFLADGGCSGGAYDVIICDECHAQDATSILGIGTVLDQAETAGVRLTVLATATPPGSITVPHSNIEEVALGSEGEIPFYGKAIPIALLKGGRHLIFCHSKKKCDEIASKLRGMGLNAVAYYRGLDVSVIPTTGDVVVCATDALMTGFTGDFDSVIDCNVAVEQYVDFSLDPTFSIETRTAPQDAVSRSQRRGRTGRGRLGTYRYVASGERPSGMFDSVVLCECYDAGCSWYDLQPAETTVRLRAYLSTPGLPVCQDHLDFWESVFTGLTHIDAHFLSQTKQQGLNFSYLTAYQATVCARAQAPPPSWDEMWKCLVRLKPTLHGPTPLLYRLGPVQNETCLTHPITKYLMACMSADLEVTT
Test: Ki determination, NS3 protease genotype 3a (fluorogenic depsipeptide substrate)
Assay type: biochemical, hepatitis C virus
Details: read-out: Ki 3A, 200 pM enzyme, 20 μM NS4A peptide, 2 μM substrate
attributeMeasured: pKi
Numbers only, as −log10 of the molar value.

Please review the following examples before continuing.
COc1ccc2nc3c(nc2c1)O[C@H]1CN(C(=O)[C@H](C(C)(C)C)NC(=O)O[C@@H]2C[C@@H]4C[C@@H]4[C@H]2CCCCC3)[C@H](C(=O)N[C@]2(C(=O)NS(=O)(=O)C3(C)CC3)C[C@H]2C(F)F)[C@@H]1C = 10.15
C=C[C@@H]1C[C@]1(NC(=O)[C@@H]1[C@H](C)[C@@H]2CN1C(=O)[C@H](C(C)(C)C)NC(=O)O[C@@H]1C[C@H]1CCCCCc1nc3ccc(OC)cc3nc1O2)C(=O)NS(=O)(=O)C1CC1 = 10.05

# batch size: 2; output pKi per entry
1. COc1ccc2nc3c(nc2c1)O[C@H]1CN(C(=O)[C@H](C(C)(C)C)NC(=O)O[C@@H]2C[C@H]2CCCCC3)[C@H](C(=O)N[C@]2(C(=O)NS(=O)(=O)C3(C)CC3)C[C@H]2CCF)[C@@H]1C
2. COc1ccc2nc3c(nc2c1)O[C@H]1CN(C(=O)[C@H](C(C)(C)C)NC(=O)O[C@@H]2C[C@@H]4C[C@@H]4[C@H]2CCCCC3)[C@H](C(=O)N[C@]2(C(=O)NS(=O)(=O)C3(C)CC3)C[C@H]2CC(F)F)[C@@H]1C

Output line:
8.96
9.77
